# system: OX2 (Homo sapiens)
# testName: Measurement of orexin receptor-binding ability ([125I]-OX-A, cell membranes, OX2)
# Parameters: expressed in transfected cells; host or cells: CHO cells (membrane preparation)
# testSettings: OX2 (IC50) nM, membranes of recombinant CHO cells expressing OX2, 0.2 nM [125I]-OX-A
valueType: IC50
The answer consists of two parts: a number and, after it, its unit.

Example entries and their recorded answers appear below.
molecule	recordedValue
COc1cncc(NC(=O)[C@@H]2C[C@@]2(COc2cnc(C)nc2C)c2cccc(F)c2)c1 [Example 89]	14 nM
COCc1nc(C)ncc1OC[C@@]1(c2cccc(F)c2)C[C@H]1C(=O)Nc1ccc(F)cn1 [Example 191]	1 nM
Cc1ccc(NC(=O)[C@@H]2C[C@@]2(COc2cnc(C)nc2C)c2cccc(F)c2)nc1 [Example 278]	10 nM
Cc1ncc(OCC2(c3cccc(Cl)c3)CC2C(=O)Nc2cccnc2)c(C)n1 (stereo not shown) [Example 157]	69 nM
Cc1ncc(OC[C@@]2(c3ccccc3)C[C@H]2C(=O)Nc2cc(F)cc(F)n2)c(C)n1 [Example 76-1]	61 nM

For each of the items listed, what is its IC50?
1. Cc1ncc(OC[C@@]2(c3cccc(F)c3)C[C@H]2C(=O)Nc2cnc(F)c(C)c2)c(C)n1 [Example 91]
2. Cc1ncc(OC[C@@]2(c3ccccc3)C[C@H]2C(=O)Nc2cc(C)c(F)cn2)c(C)n1 [Example 51]
3. Cc1ncc(OCC2(c3ccccc3Cl)CC2C(=O)Nc2ccc(F)cn2)c(C)n1 (stereo not shown) [Example 151]
4. Cc1ncc(OC[C@@]2(c3ccc(Cl)cc3)C[C@H]2C(=O)Nc2ccc(F)cn2)c(C)n1 [Example 161]
5. Cc1ncc(OC[C@@]2(c3cccc(F)c3)C[C@H]2C(=O)Nc2ccccc2)c(C)n1 [Example 93]

Result:
1: 22 nM; 2: 3.9 nM; 3: 25 nM; 4: 12 nM; 5: 9 nM

====

# system: OX2 (Homo sapiens, UniProt O43614)
# Sequence (O43614 whole entry): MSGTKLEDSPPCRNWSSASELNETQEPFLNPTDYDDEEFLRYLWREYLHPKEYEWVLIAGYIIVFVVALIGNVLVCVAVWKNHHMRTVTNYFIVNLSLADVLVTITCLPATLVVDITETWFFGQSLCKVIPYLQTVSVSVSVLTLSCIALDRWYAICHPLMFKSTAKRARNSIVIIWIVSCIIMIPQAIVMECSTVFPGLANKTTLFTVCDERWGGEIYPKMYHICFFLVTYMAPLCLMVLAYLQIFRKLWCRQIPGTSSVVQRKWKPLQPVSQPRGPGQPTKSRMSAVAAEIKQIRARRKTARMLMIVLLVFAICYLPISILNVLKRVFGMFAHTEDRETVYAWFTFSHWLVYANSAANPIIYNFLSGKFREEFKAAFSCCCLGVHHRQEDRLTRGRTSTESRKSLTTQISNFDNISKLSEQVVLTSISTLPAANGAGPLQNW
# testName: Measurement of orexin receptor-binding ability ([125I]-OX-A, cell membranes, OX2)
# Set-up: expressed in transfected cells; host or cells: CHO cells (membrane preparation)
# testSettings: membranes of recombinant CHO cells expressing OX2, 0.2 nM [125I]-OX-A; read-out: OX2 (IC50)
valueType: pIC50
Numbers only, as −log10 of the molar value.

compound	pIC50
COCCc1nc(C)ncc1OC[C@@]1(c2cccc(F)c2)C[C@H]1C(=O)Nc1ccccn1 [Example 228]	7.35

For each of the items listed, what is its pIC50?
1. COCc1nc(C)ncc1OC[C@@]1(c2ccccc2)C[C@H]1C(=O)Nc1ccc(C#N)cn1 [Example 140]
2. CCc1nc(C)ncc1OC[C@@]1(c2cccc(F)c2)C[C@H]1C(=O)Nc1ccc(F)cc1 [Example 316]
3. COc1cccc(NC(=O)[C@@H]2C[C@@]2(COc2cnc(C)nc2C)c2ccccc2)c1 [Example 36]
4. COc1cccc([C@]2(COc3cnc(C)nc3C)C[C@H]2C(=O)Nc2ccc(F)c(F)c2)c1 [Example 190]
5. COCc1nc(C)ncc1OCC1(c2cccc(Cl)c2)CC1C(=O)Nc1ccc(Cl)cn1 (centres unmarked) [Example 223]
6. COc1cccc([C@]2(COc3cnc(C)nc3C)C[C@H]2C(=O)Nc2ccccn2)c1 [Example 188]
7. COCc1ccnc(NC(=O)[C@@H]2C[C@@]2(COc2cnc(C)nc2C)c2ccccc2)c1 [Example 14]

Result:
1. 8.05
2. 8.96
3. 8.52
4. 8.30
5. 7.47
6. 7.21
7. 7.80

====

Assign Ki to each entry below.
# system: OX1 (Homo sapiens, UniProt O43613)
# Sequence (O43613 whole entry): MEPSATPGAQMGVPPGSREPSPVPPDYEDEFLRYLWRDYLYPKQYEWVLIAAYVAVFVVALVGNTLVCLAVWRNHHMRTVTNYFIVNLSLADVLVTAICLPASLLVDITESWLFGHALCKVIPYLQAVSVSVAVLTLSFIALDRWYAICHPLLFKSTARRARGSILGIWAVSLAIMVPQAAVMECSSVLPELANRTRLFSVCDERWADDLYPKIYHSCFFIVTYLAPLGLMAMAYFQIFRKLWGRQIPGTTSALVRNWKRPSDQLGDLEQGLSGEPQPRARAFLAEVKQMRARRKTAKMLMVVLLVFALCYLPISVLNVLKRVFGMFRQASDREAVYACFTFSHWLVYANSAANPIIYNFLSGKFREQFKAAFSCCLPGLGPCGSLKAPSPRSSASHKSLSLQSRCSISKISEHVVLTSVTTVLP
# testName: Measurement of antagonism (PLAP assay), OX1
# Assay type: cell-based
# Design: expressed in transfected cells; host or cells: HEK-293 cells, expression vector pBabeCLIH
# testSettings: HEK-293 cells expressing human OX1, 1 nM human OX-A, IC50 converted by Cheng-Prusoff equation; read-out: OX1 (Ki)
Numbers only, in µM.

Example entries and their recorded answers appear below.
smilesEntry	unitSpec	Ki
Cc1ncc(OC[C@@]2(c3ccccc3)C[C@H]2C(=O)Nc2ccccc2)c(C)n1	µM	0.133
CCc1nc(C)ncc1OC[C@@]1(c2ccccc2)C[C@H]1C(=O)Nc1ccc(Cl)cn1	µM	0.026
COCc1nc(C)ncc1OC[C@@]1(c2ccccc2)C[C@H]1C(=O)Nc1ccc(Cl)cn1	µM	0.113

Kindly review the next molecule as well.
Q: Please give the measured Ki for this molecule: `Cc1ncc(OC[C@@]2(c3ccccc3)C[C@H]2C(=O)Nc2ccc(F)cn2)c(C)n1`
Result: 0.157

====

# system: OX1 (Homo sapiens, UniProt O43613)
# testName: Measurement of orexin receptor-binding ability ([125I]-OX-A, cell membranes, OX1)
# Design: expressed in transfected cells; host or cells: CHO cells (membrane preparation)
# testSettings: membranes of recombinant CHO cells expressing OX1, 0.2 nM [125I]-OX-A; read-out: OX1 (IC50)
Assign pIC50 to each entry below.
Give bare numbers, as −log10 of the molar value.

Example entries and their recorded answers appear below.
compound	valueType	recordedValue
COCc1nc(C)ncc1OC[C@@]1(c2ccc(F)c(F)c2)C[C@H]1C(=O)Nc1ccc(F)cc1	pIC50	7.85
Cc1ncc(OC[C@@]2(c3ccccc3)C[C@H]2C(=O)Nc2ncc(C)s2)c(C)n1	pIC50	6.53
Cc1ncc(OC[C@@]2(c3ccccc3)C[C@H]2C(=O)Nc2ccc(Cl)cn2)c(C)n1	pIC50	7.40

For each of the items listed, what is its pIC50?
1. COc1cncc(NC(=O)[C@@H]2C[C@@]2(COc2cnc(C)nc2C)c2ccc(F)cc2)c1
2. Cc1ncc(OCC2(c3cccc(C(F)(F)F)c3)CC2C(=O)Nc2ccc(C#N)cn2)c(C)n1 (centres unmarked)
3. Cc1ncc(OC[C@@]2(c3cccs3)C[C@H]2C(=O)Nc2ccc(Cl)cn2)c(C)n1
4. Cc1ncc(OCC2(c3ccc(Cl)cc3)CC2C(=O)Nc2cccnc2)c(C)n1 (centres unmarked)
5. Cc1ncc(OC[C@@]2(c3ccccc3)C[C@H]2C(=O)Nc2cnc(Cl)c(Br)c2)c(C)n1

Result:
1. 5.99
2. 6.10
3. 6.93
4. 6.41
5. 5.85

====

# system: OX2 (Homo sapiens, UniProt O43614)
# testName: Measurement of orexin receptor-binding ability ([125I]-OX-A, cell membranes, OX2)
# Set-up: expressed in transfected cells; host or cells: CHO cells (membrane preparation)
# testSettings: OX2 (IC50) nM, membranes of recombinant CHO cells expressing OX2, 0.2 nM [125I]-OX-A
Please note: IC50 exactly at 60 nM is criterion not met. Only values below 60 nM get criterion met.

Q: # TODO verify IC50 < 60 nM strictly for this compound: COCc1nc(C)ncc1OCC1(c2cccc(Cl)c2)CC1C(=O)Nc1ccc(F)cn1 (centres unmarked)
Result: criterion not met

Q: # TODO verify IC50 < 60 nM strictly for this compound: `Cc1ncc(OC[C@@]2(c3ccccc3)C[C@H]2C(=O)Nc2cc(Cl)ccn2)c(C)n1`
Result: criterion met

Q: # TODO verify IC50 < 60 nM strictly for this compound: `Cc1ncc(OC[C@@]2(c3ccccc3F)C[C@H]2C(=O)Nc2ccc(F)cn2)c(C)n1`
Result: criterion met

Q: # TODO verify IC50 < 60 nM strictly for this compound: Cc1ccc(C2(COc3cnc(C)nc3C)CC2C(=O)Nc2ccc(F)cn2)cc1 (centres unmarked)
Result: criterion met

Q: # TODO verify IC50 < 60 nM strictly for this compound: COc1ccccc1C1(COc2cnc(C)nc2C)CC1C(=O)Nc1ccc(F)cn1 (centres unmarked)
Result: criterion not met

Q: # TODO verify IC50 < 60 nM strictly for this compound: `Cc1ncc(OC[C@@]2(c3cccc(F)c3)C[C@H]2C(=O)Nc2ccc(F)cn2)c(CF)n1`
Result: criterion met

Q: # TODO verify IC50 < 60 nM strictly for this compound: `Cc1ncc(OC[C@@]2(c3cccc(F)c3)C[C@H]2C(=O)Nc2cc(Cl)ccn2)c(C)n1`
Result: criterion met

Q: # TODO verify IC50 < 60 nM strictly for this compound: `Cc1ncc(OC[C@@]2(c3ccsc3)C[C@H]2C(=O)Nc2ccc(F)cn2)c(C)n1`
Result: criterion met

====

# system: UniProt O43613
# testName: Measurement of orexin receptor-binding ability ([125I]-OX-A, cell membranes, OX1)
# Parameters: expressed in transfected cells; host or cells: CHO cells (membrane preparation)
Assign pIC50 to each entry below.
Give bare numbers, as −log10 of the molar value.

Example entries and their recorded answers appear below.
compound	pIC50
Cc1ncc(OC[C@@]2(c3ccc(F)c(F)c3)C[C@H]2C(=O)Nc2ccc(F)cn2)c(C)n1	7.85
Cc1ncc(OC[C@@]2(c3cccc(F)c3)C[C@H]2C(=O)Nc2cc(Cl)ccn2)c(C)n1	8.40
CCc1nc(C)ncc1OC[C@@]1(c2ccccc2)C[C@H]1C(=O)Nc1ccc(F)cn1	7.68
Cc1ncc(OC[C@@]2(c3cccc(F)c3)C[C@H]2C(=O)Nc2ccncc2)c(C)n1	5.69
COc1ccc(C2(COc3cnc(C)nc3C)CC2C(=O)Nc2ccc(F)cn2)cc1 (centres unmarked)	6.93
Cc1ncc(OC[C@@]2(c3cccc(F)c3)C[C@H]2C(=O)Nc2ccc(F)nc2)c(C)n1	6.57
Cc1nc(C)[n+]([O-])cc1OC[C@@]1(c2cccc(F)c2)C[C@H]1C(=O)Nc1ccc(F)cn1	6.95

Kindly review the next compound as well.
Q: Please give the measured pIC50 for this compound: `CC(=O)c1cccc(NC(=O)[C@@H]2C[C@@]2(COc2cnc(C)nc2C)c2ccccc2)c1`
Result: 7.39

Numbers sourced from patent US8268848B2.
